The entries below pair compounds with pKi values for UniProt:P00760, as found in several publications.
Target: UniProt:P00760
Sequence (P00760 whole entry): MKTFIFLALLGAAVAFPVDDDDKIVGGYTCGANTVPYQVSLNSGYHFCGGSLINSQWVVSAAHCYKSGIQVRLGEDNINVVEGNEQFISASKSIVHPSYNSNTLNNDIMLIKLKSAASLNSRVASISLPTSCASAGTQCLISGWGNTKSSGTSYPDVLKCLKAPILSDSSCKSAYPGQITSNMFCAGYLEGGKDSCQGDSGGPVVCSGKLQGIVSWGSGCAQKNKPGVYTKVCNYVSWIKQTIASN
pKi: −log10 of the molar value.

The examples below pair each entry with its known result.
[[record]]
compound = "Cc1ccc(NS(=O)(=O)Cc2cccc(C(F)(F)F)c2)c(=O)n1CC(=O)NC1CCc2nc(N)sc2C1 (stereo not given)"
metric_name = "pKi"
result = "< 3.70"

[[record]]
compound = "O=S(=O)(Nc1cccc(OCCNc2ccncc2)c1)c1ccc(Cl)cc1"
metric_name = "pKi"
result = "< 3.30"

[[record]]
compound = "Cc1cccc(OCCNc2ccncc2)c1"
metric_name = "pKi"
result = "< 3.30"


Provide UniProt:P00760 pKi reading for Cc1ccc(NS(=O)(=O)Cc2ccc(F)cc2)c(=O)n1CC(=O)N[C@H]1CCc2nc(N)sc2C1 . < 3.15

Provide UniProt:P00760 pKi reading for Cc1ccc(S(=O)(=O)N/C(N)=N\CCC[C@@H](NC(=O)[C@H]2CCCN2C(=O)[C@H](Cc2ccccc2)N(C)C(=O)OCc2ccccc2)C(O)c2nc3ccccc3s2)cc1 (stereo not given in full) . < 3.82
